- SYSTEM NAME: T1, IL-2Rα on the surface of KIT225 or F15R-Kit cells (human, UniProt P01589 22-272)
- T1 construct: whole, on cells; KIT225 cells also carry some IL-2Rβ and IL-2Rγ; also called IL-2 receptor α subunit; p55
- T1 sequence (looked up): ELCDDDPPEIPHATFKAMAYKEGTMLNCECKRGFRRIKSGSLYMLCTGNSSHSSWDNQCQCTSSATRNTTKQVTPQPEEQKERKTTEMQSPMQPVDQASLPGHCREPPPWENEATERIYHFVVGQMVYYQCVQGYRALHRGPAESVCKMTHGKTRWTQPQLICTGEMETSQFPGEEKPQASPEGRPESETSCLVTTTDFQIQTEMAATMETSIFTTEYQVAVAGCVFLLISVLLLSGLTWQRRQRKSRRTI
- EXPERIMENT DESCRIPTION: flow cytometry on F15R-Kit cells, 30 min at 37 C, pH 7.4
RESULT TYPE: pKd
pKd (log units): -log10 of the concentration in mol/L.

Consider the reported pKd for these binders:
[[record]]
binder = "IL-2 mutant WE3 (ligand, not shown: small tags and cut ends, also called N31610-25_) APTSSSTKKTQLQLEHLLLDLQMILNGINSYKNPKLTRMLTFKFYMPKKATELKHLQCLEEELKPLEEALNLAPSKNFHLRPRDLISNINVIVLELKGSETTFMCEYADETATIVEFLNRWITFSQSTISTLT"
experimental_result = 9.11

[[record]]
binder = "IL-2 mutant WC9 (ligand, not shown: small tags and cut ends, also called N31610-18_) APTPSSTKKARLQLEHLLLDLQMILNGINNYKNPKLTRMLTFKFYMPKKATELKHLQCLEEELKPLEEALNLAPSKNFHLRPRDLISDINVIVLELKGSETTFMCEYADETATIVEFLNRWITFSQSIISTLA"
experimental_result = 8.80

[[record]]
binder = "IL-2 mutant 2-4 (ligand, not shown: small tags and cut ends, also called N31618-14_; N31610-14_) APTSSSTKKTQLQLEHLLLDLQMILNGISNHKNPRLARMLTFKFYMPEKATELKHLQCLEEELKPLEEALRLAPSKNFHLRPRDLISDVNVIVLELKGSETTFMCEYADETATIVEFLNRWITFSQSIISTLT"
experimental_result = 9.74

[[record]]
binder = "IL-2 mutant M6 (V69A, Q74P, I128T) (ligand, not shown: small tags and cut ends, Soluble form secreted from yeast) APTSSSTKKTQLQLEHLLLDLQMILNGINNYKNPKLTRMLTFKFYMPKKATELKHLQCLEEELKPLEEALNLAPSKNFHLRPRDLISNINVIVLELKGSETTFMCEYADETATIVEFLNRWITFSQSTISTLT"
experimental_result = 8.92

[[record]]
binder = "IL-2 mutant 1b-8 (ligand, not shown: small tags and cut ends, also called N31618-08_) APTSSSTRKTQLRLEHLLLDLQMILDGINTYKNPRLRRMLTFKFYMPKKATELKHLQCLEEELKPLEEALNLAPSKNFHLRPRDLISNINVTVLELKGSETTFMCEYADETATIVEFLNRWITFSQSIISTLT"
experimental_result = 9.39


Then there is this binder:
I would be grateful if you could share the reported pKd for IL-2 mutant 1a-1 (ligand, not shown: small tags and cut ends, also called N31610-01_) APTSSSTKKTQLQLEHLLLDLQMILNGINSYKNPKLTRMLTFKFYMPKKATELKHLQCLEEELKPLEDALALAPPRNFHLRPRDLISNIHVIVLELKGSETTFMCEYADETATIVEFLNRWITFSQSIISTLT .
9.60

# credit: patent US20050142106A1
